// data source = patent US20240043504A1

For each record, write down the corresponding t½.
Molecular target: SARS-COV-2 RBD extracellular domain expressed with a C-terminal mouse IgG2a (SARS-CoV-2)
Experiment: SPR Biacore, mAb captured via anti-hFc, 25 C
Include the unit right after the number.

Query block: // returns reported t½ for input mAb10938 (antibody, V domains shown) VH: EVQLVESGGGLVQPGGSLRLSCAVSGFTVSSNYMSWVRQAPGKGLEWVSLIYSGGSTFYADSVKGRFTISRHNSKNTLYLQMNSLRAEDTAVYYCAREGGYSYDYNYWGQGTLVTVSS VL: DIQMTQSPSSLSASVGDRVTITCQASQDIRNYLNWYQQKPGKAPKLLIYDASNLETGVPSRFSGIGSGTDFTFTISSLQPEDIATYYCQQYDNLPITFGQGTRLEIKR
Result block: 11.4 h

Query block: Check mAb10920 (antibody, V domains shown) VH: QVQLVESGGGVVQPGRSLRLSCAASGFTFSYYGMHWVRQAPGKGLEWVAVIWYDGSNKFYADSVKGRFTISRDNSKNTLYLQMNSLRAEDTAVYYCAAARPGYYYGMDVWGQGTTVTVSS VL: DIQMTQSPSSLSASVGDRVTITCRASQGISNYLAWFQQKPGKAPNSLIYAASSLQRGVPSKFSGSGSGTDFTLTISSLQPEDFATYYCQQYNSYPRTFGQGTKVEIKR too.
Result block: 0.755 h

Query block: Check mAb11006 (antibody, V domains shown) VH: EVQLVESGGGLVQPGGSLRLSCAASGFIVSRNYMSWVRQAPGKGLEWVSVIYSGGSTFYADSVKGRFTISRHNSKNTLYLQMNSLKAEDTAVYYCARELRGYFDYWGQGTLVTVSS VL: DIQLTQSPSFLSASVGDRVTITCWASQGISSYLAWYQQKPGKAPKLLIYAASTLQSGVPSRFSGSGSGTEFTLTISSLQPEDFATYYCQLLNSYPYTFGQGTKLEIKR too.
Result block: 3.69 h

Query block: Check mAb10955 (antibody, V domains shown) VH: EVQLVESGGGLVQPGGSLRVSCAASGFTVSRNYMSWVRQAPGKGLEWVSVIYSGGSTFYADSVKGRFTISRDNSKNTLYLQMNSLRAEDTAIYYCARYIPRFDPWGQGTLVTVSS VL: DIQMTQSPSSLSASVGDRVTITCQASQDISNYLNWFQQKPGRAPKLLIYDASNLETGVPSRFSGSGSGTDFTFTISSLQPEDIATYYCQQYDNLPITFGQGTRLEIKR too.
Result block: 2.09 h
